- Test system: NCI-H1755
- ASSAY NOTES: relative viability (nuclei count vs DMSO), 5 days (fraction); higher = more cells survive
- APPLIED CONDITIONS: first compound 8 µM
For each of the molecules below, state its relative viability.
Give bare numbers.

{"MOLECULE": "O=c1[nH]c2ccccc2n1C1CCN(CCCC(c2ccc(F)cc2)c2ccc(F)cc2)CC1 [Pimozide] + O=C(c1cc(Cc2n[nH]c(=O)c3ccccc23)ccc1F)N1CCN(C(=O)C2CC2)CC1 [Olaparib] (partner 8 µM)", "TEST TARGET": "NCI-H1755", "relative viability": 0.776}

Next molecule, please.
[ask] Record lookup: for NCI-H1755, what relative viability belongs to O=c1[nH]c2ccccc2n1C1CCN(CCCC(c2ccc(F)cc2)c2ccc(F)cc2)CC1 [Pimozide] + C[C@]1(O)C[C@@H](c2nc(-c3ccc4ccc(-c5ccccc5)nc4c3)c3c(N)nccn32)C1 [Linsitinib] (partner 1 µM) ?
[reply] 0.845

* * *

- Tested on: ABC-1
- ASSAY NOTES: relative viability (nuclei count vs DMSO), 5 days (fraction); higher = more cells survive
- APPLIED CONDITIONS: first compound 0.08 µM
MEASURED PROPERTY: relative viability
Give bare numbers.

Example molecules with recorded relative viability:
{"MOLECULE": "Cc1cnc(-c2cnc(NCCNc3ccc(C#N)cn3)nc2-c2ccc(Cl)cc2Cl)[nH]1 + O=C(c1cc(Cc2n[nH]c(=O)c3ccccc23)ccc1F)N1CCN(C(=O)C2CC2)CC1 [Olaparib] (partner 8 µM)", "relative viability": 0.788}
{"MOLECULE": "Cc1cnc(-c2cnc(NCCNc3ccc(C#N)cn3)nc2-c2ccc(Cl)cc2Cl)[nH]1 + CS(=O)(=O)N1CCN(Cc2cc3nc(-c4cccc5[nH]ncc45)nc(N4CCOCC4)c3s2)CC1 [Pictilisib] (partner 1 µM)", "relative viability": 1}

The following molecules each have a reported value; give each one's relative viability.
1. O=c1[nH]c2ccccc2n1C1CCN(CCCC(c2ccc(F)cc2)c2ccc(F)cc2)CC1 [Pimozide] + CC(C)C[C@H](NC(=O)[C@H](Cc1ccccc1)NC(=O)c1cnccn1)B(O)O [Bortezomib] (partner 0.002 µM)
2. Cc1cnc(-c2cnc(NCCNc3ccc(C#N)cn3)nc2-c2ccc(Cl)cc2Cl)[nH]1 + C[C@]1(O)C[C@@H](c2nc(-c3ccc4ccc(-c5ccccc5)nc4c3)c3c(N)nccn32)C1 [Linsitinib] (partner 1 µM)
3. O=c1[nH]c2ccccc2n1C1CCN(CCCC(c2ccc(F)cc2)c2ccc(F)cc2)CC1 [Pimozide] + COc1cccc2cc(-c3nc([C@H]4CC[C@H](C(=O)O)CC4)n4ncnc(N)c34)[nH]c12 [OSI-027] (partner 0.5 µM)

[reply]
1: 0.289; 2: 1.04; 3: 0.514

The following molecules each have a reported value; give each one's relative viability.
1. O=c1[nH]c2ccccc2n1C1CCN(CCCC(c2ccc(F)cc2)c2ccc(F)cc2)CC1 [Pimozide] + Cc1cc(Nc2cc(N3CCN(C)CC3)nc(Sc3ccc(NC(=O)C4CC4)cc3)n2)n[nH]1 [Tozasertib] (partner 0.1 µM)
2. O=c1[nH]c2ccccc2n1C1CCN(CCCC(c2ccc(F)cc2)c2ccc(F)cc2)CC1 [Pimozide] + COc1cc2c(Oc3ccc(NC(=O)C4(C(=O)Nc5ccc(F)cc5)CC4)cc3F)ccnc2cc1OCCCN1CCOCC1 [Foretinib] (partner 0.25 µM)
3. O=c1[nH]c2ccccc2n1C1CCN(CCCC(c2ccc(F)cc2)c2ccc(F)cc2)CC1 [Pimozide] + C[C@]1(O)C[C@@H](c2nc(-c3ccc4ccc(-c5ccccc5)nc4c3)c3c(N)nccn32)C1 [Linsitinib] (partner 1 µM)
4. O=c1[nH]c2ccccc2n1C1CCN(CCCC(c2ccc(F)cc2)c2ccc(F)cc2)CC1 [Pimozide] + CC(=O)c1c(C)c2cnc(Nc3ccc(N4CCNCC4)cn3)nc2n(C2CCCC2)c1=O [Palbociclib] (partner 0.5 µM)
5. Cc1cnc(-c2cnc(NCCNc3ccc(C#N)cn3)nc2-c2ccc(Cl)cc2Cl)[nH]1 + N=C(N)NC(=N)NCCc1ccccc1 [Phenformin] (partner 250 µM)

[reply]
1. 0.213
2. 1.11
3. 0.825
4. 0.527
5. 0.259

[ask] // lookup relative viability for O=c1[nH]c2ccccc2n1C1CCN(CCCC(c2ccc(F)cc2)c2ccc(F)cc2)CC1 [Pimozide] + CS(=O)(=O)CCNCc1ccc(-c2ccc3ncnc(Nc4ccc(OCc5cccc(F)c5)c(Cl)c4)c3c2)o1 [Lapatinib] (partner 2 µM)
[reply] 1.18

* * *

- System: NCI-H1666
- ASSAY NOTES: relative viability (nuclei count vs DMSO), 5 days (fraction); higher = more cells survive
- APPLIED CONDITIONS: first compound 0.1581 µM
MEASURED PROPERTY: relative viability
Numbers only.

Example compounds with recorded relative viability:
{"COMPOUND": "Nc1ccn([C@@H]2O[C@H](CO)[C@@H](O)[C@@H]2O)c(=O)n1 [Cytarabine] + Cc1nc(NC(=O)N2CCC[C@H]2C(N)=O)sc1-c1ccnc(C(C)(C)C(F)(F)F)c1 [Alpelisib] (partner 2 µM)", "TEST TARGET": "NCI-H1666", "relative viability": 0.279}
{"COMPOUND": "Nc1ccn([C@@H]2O[C@H](CO)[C@@H](O)[C@@H]2O)c(=O)n1 [Cytarabine] + CS(=O)(=O)N1CCN(Cc2cc3nc(-c4cccc5[nH]ncc45)nc(N4CCOCC4)c3s2)CC1 [Pictilisib] (partner 1 µM)", "TEST TARGET": "NCI-H1666", "relative viability": 0.229}
{"COMPOUND": "COc1cc2nccc(Oc3ccc(NC(=O)Nc4cc(C)on4)c(Cl)c3)c2cc1OC [Tivozanib] + Cc1cc(Nc2cc(N3CCN(C)CC3)nc(Sc3ccc(NC(=O)C4CC4)cc3)n2)n[nH]1 [Tozasertib] (partner 0.1 µM)", "TEST TARGET": "NCI-H1666", "relative viability": 0.628}

[ask] // lookup relative viability for Nc1ccn([C@@H]2O[C@H](CO)[C@@H](O)[C@@H]2O)c(=O)n1 [Cytarabine] + Cc1nc(Nc2ncc(C(=O)Nc3c(C)cccc3Cl)s2)cc(N2CCN(CCO)CC2)n1 [Dasatinib] (partner 0.075 µM)
[reply] 0.396

* * *

- System: H3255
- ASSAY NOTES: relative viability (nuclei count vs DMSO), 5 days (fraction); higher = more cells survive
- APPLIED CONDITIONS: first compound 0.1581 µM
For each of the compounds below, state its relative viability.
Numbers only.

The following compounds each have a reported value; give each one's relative viability.
1. Nc1ccn([C@@H]2O[C@H](CO)[C@@H](O)[C@@H]2O)c(=O)n1 [Cytarabine] + O=C(c1cc(Cc2n[nH]c(=O)c3ccccc23)ccc1F)N1CCN(C(=O)C2CC2)CC1 [Olaparib] (partner 8 µM)
2. COc1cc2nccc(Oc3ccc(NC(=O)Nc4cc(C)on4)c(Cl)c3)c2cc1OC [Tivozanib] + Cc1cc(Nc2cc(N3CCN(C)CC3)nc(Sc3ccc(NC(=O)C4CC4)cc3)n2)n[nH]1 [Tozasertib] (partner 0.1 µM)
3. Nc1ccn([C@@H]2O[C@H](CO)[C@@H](O)[C@@H]2O)c(=O)n1 [Cytarabine] + CC1(C)CCC(c2ccc(Cl)cc2)=C(CN2CCN(c3ccc(C(=O)NS(=O)(=O)c4ccc(N[C@H](CCN5CCOCC5)CSc5ccccc5)c(S(=O)(=O)C(F)(F)F)c4)cc3)CC2)C1 [Navitoclax] (partner 0.5 µM)
4. Nc1ccn([C@@H]2O[C@H](CO)[C@@H](O)[C@@H]2O)c(=O)n1 [Cytarabine] + N=C(N)NC(=N)NCCc1ccccc1 [Phenformin] (partner 250 µM)

[reply]
[0.526, 0.804, 0.325, 0.25]

* * *

- System: NCI-H460
- ASSAY NOTES: relative viability (nuclei count vs DMSO), 5 days (fraction); higher = more cells survive
- APPLIED CONDITIONS: first compound 0.006325 µM
For each of the compounds below, state its relative viability.
Give bare numbers.

Example compounds with recorded relative viability:
{"COMPOUND": "CC(=O)O[C@@]12CO[C@@H]1C[C@H](O)[C@@]1(C)C(=O)[C@H](O)C3=C(C)[C@@H](OC(=O)[C@H](O)[C@@H](NC(=O)OC(C)(C)C)c4ccccc4)C[C@@](O)([C@@H](OC(=O)c4ccccc4)[C@H]21)C3(C)C [Docetaxel] + Cc1nc(Nc2ncc(C(=O)Nc3c(C)cccc3Cl)s2)cc(N2CCN(CCO)CC2)n1 [Dasatinib] (partner 0.075 µM)", "TEST TARGET": "NCI-H460", "READING": 0.0266}
{"COMPOUND": "CC(=O)O[C@@]12CO[C@@H]1C[C@H](O)[C@@]1(C)C(=O)[C@H](O)C3=C(C)[C@@H](OC(=O)[C@H](O)[C@@H](NC(=O)OC(C)(C)C)c4ccccc4)C[C@@](O)([C@@H](OC(=O)c4ccccc4)[C@H]21)C3(C)C [Docetaxel] + Nc1nc2[nH]cc(CCc3ccc(C(=O)N[C@@H](CCC(=O)O)C(=O)O)cc3)c2c(=O)[nH]1 [Pemetrexed] (partner 0.2 µM)", "TEST TARGET": "NCI-H460", "READING": 0.0299}
{"COMPOUND": "CC(=O)O[C@@]12CO[C@@H]1C[C@H](O)[C@@]1(C)C(=O)[C@H](O)C3=C(C)[C@@H](OC(=O)[C@H](O)[C@@H](NC(=O)OC(C)(C)C)c4ccccc4)C[C@@](O)([C@@H](OC(=O)c4ccccc4)[C@H]21)C3(C)C [Docetaxel] + CC(C)C[C@H](NC(=O)[C@H](Cc1ccccc1)NC(=O)c1cnccn1)B(O)O [Bortezomib] (partner 0.002 µM)", "TEST TARGET": "NCI-H460", "READING": 0.0162}

[ask] // lookup relative viability for CC(=O)O[C@@]12CO[C@@H]1C[C@H](O)[C@@]1(C)C(=O)[C@H](O)C3=C(C)[C@@H](OC(=O)[C@H](O)[C@@H](NC(=O)OC(C)(C)C)c4ccccc4)C[C@@](O)([C@@H](OC(=O)c4ccccc4)[C@H]21)C3(C)C [Docetaxel] + CS(=O)(=O)N1CCN(Cc2cc3nc(-c4cccc5[nH]ncc45)nc(N4CCOCC4)c3s2)CC1 [Pictilisib] (partner 1 µM)
[reply] 0.0682

Cited source: the supplement of paper PMC10307832
